# Test system: UACC-257 melanoma
# RUN_DESCRIPTION: NCI-60 one-dose screen, 48 h (100 = growth as untreated, 0 = no growth, -100 = all killed)
# CONDITION_NOTES: 10 µM unless noted
The panel holds about 83,000 compounds, 20% with a hit somewhere; the sample as a whole holds those more often.
Classify by measured growth: YES if it is equal to or exceeds 60%, NO if it is smaller.

>>> category("O=C(OC(CO)C(=O)NC12CC3CC(CC(C3)C1)C2)c1ccc(Cl)cc1 (stereo not given)")
"YES"
>>> category("Nc1nc2ccccc2c2c(=O)c3cccc(Cl)c3sc12")
"YES"
>>> category("Cc1nc2sc(C(=O)Nc3cccc(Br)c3)c(N)c2cc1C(O)c1ccccc1 (stereo not given)")
"NO"
>>> category("c1csc(-c2ccc(CNc3c4ccccc4nc4ccccc34)cc2)c1")
"NO"

* * *

# System: NCI-H226 lung
# RUN_DESCRIPTION: NCI-60 one-dose screen, 48 h
# CONDITION_NOTES: 10 µM unless noted
The panel holds about 83,000 compounds, 20% with a hit somewhere; the sample as a whole holds those more often. Calls of active or inactive are those of the source. How the source made its calls: active means growth percent below 10; inactive means the rest.
Possible outcomes: TRUE for active, FALSE for inactive

>>> category("CSc1nc2ccccc2cc1/C=[N+](\\[O-])c1ccccc1")
"FALSE"
>>> category("O=C(O)c1cn(C2CC2)c2cc(N3CCN(Cc4ccc5ccccc5c4O)CC3)c(F)cc2c1=O")
"TRUE"
>>> category("CNc1nnc2n(-c3ccccc3)c(=O)c3cnn(-c4ccccc4)c3n12")
"FALSE"
>>> category("Cn1ccnc1C(=O)/C=C/c1ccc(CC(=O)Nc2cc(C(F)(F)F)cc(C(F)(F)F)c2)cc1")
"FALSE"
>>> category("COc1c(B(O)O)cccc1-c1nc2c(F)cc3[nH]ncc3c2c2c1CCCC2")
"TRUE"
>>> category("Clc1ccc2c(NC3CCC(N4CCOCC4)CC3)ccnc2c1 (stereo unspecified)")
"FALSE"
>>> category("Cc1ccccc1/C=C/C(=O)c1cccc(OCCCOc2cccc(C(=O)/C=C/c3ccccc3C)c2)c1")
"FALSE"
>>> category("CCCCCOC(=O)c1c(C)[nH]c(/C=C2\\N=C(c3ccc[nH]3)C=C2OC)c1C")
"TRUE"
>>> category("CC(C)c1ccc(-n2c(=S)[nH]c3sc4cc(O)ccc4c3c2=O)cc1")
"FALSE"
>>> category("O=C1/C(=C/c2cccc(F)c2)CN(C(=O)C(Cl)Cl)C/C1=C\\c1cccc(F)c1")
"TRUE"
>>> category("CC(=O)N1N=C(c2ccc(Nc3nc(Nc4ccccc4)nc(Nc4ccccc4)n3)cc2)CC1c1cccc([N+](=O)[O-])c1 (stereo unspecified)")
"FALSE"
>>> category("CNC(=O)c1ccccc1Oc1nc(Nc2cc(OC)c(OC)c(OC)c2)ncc1Br")
"FALSE"
>>> category("Cn1ccnc1C(=O)/C=C/c1ccc(C(=O)Nc2ccccc2O)cc1")
"FALSE"
>>> category("CSc1oc(C)nc1[P+](c1ccccc1)(c1ccccc1)c1ccccc1")
"FALSE"
>>> category("CCOC(=O)c1csc(NC(=O)COc2ccc(/C=C3\\Oc4ccccc4C3=O)cc2)n1")
"FALSE"
>>> category("COC(=O)c1nc(-c2ccc(C)cc2)oc1S(=O)(=O)c1cccc(OC)c1")
"FALSE"

The reported numbers originate from PubChem BioAssay (NCI).
